Value source: PubChem BioAssay (NCATS)

# TEST_METHOD_NOTES: Quantitative High-Throughput drug screen in 47 multiple myeloma cell lines against the NCATS MIPE library collection: MM1R_ATCC cell viability assay (AID 1918981); also: nearly all actives have a fitted effect of over 35% in size
# CONDITION_NOTES: MM1R multiple myeloma cells, CellTiter-Glo viability, 48 h; series mostly up to 45.8 µM
Inconclusive results are not listed. Active and inactive are the calls of the source. Calls follow the shape of the dose curve; as a rule, active = well fitted cell-killing curve with a large enough effect; inconclusive = small, poorly fitted or top-dose-only effect, or effect the other way; inactive = no such curve, though single readings can be large or run the other way.
Respond with a class label; see TRUE = active, FALSE = inactive

Check out these entries, answers already filled in.
What classification did COc1cccc2c1[C@]13CCN(CC4CC4)[C@H](C2)[C@]1(OC)CCC(=O)C3 end up with in this test?
FALSE

What classification did Cc1[nH]nc2ccc(-c3cncc(OC[C@@H](N)Cc4c[nH]c5ccccc45)c3)cc12 end up with in this test?
TRUE

What classification did CC=C(C)C(=O)N[C@@H](c1ccccc1)[C@@H](O)C(=O)O[C@H]1C[C@@]2(O)[C@@H](OC(=O)c3ccccc3)[C@@H]3[C@]4(OC(C)=O)CO[C@@H]4C[C@H](O)[C@@]3(C)C(=O)[C@H](OC(C)=O)C(=C1C)C2(C)C end up with in this test?
FALSE

What classification did CC=C(C)C(=O)O[C@H]1C(C)=C2[C@@H]3OC(=O)[C@@](C)(O)[C@@]3(O)[C@@H](OC(=O)CCC)C[C@](C)(OC(C)=O)[C@@H]2[C@@H]1OC(=O)CCCCCCC end up with in this test?
TRUE

What classification did C[C@H]([C@H](O)CCC(C)(C)O)[C@H]1CC[C@@]2(O)C3=CC(=O)[C@@H]4C[C@@H](O)[C@@H](O)C[C@]4(C)[C@@H]3CC[C@]12C end up with in this test?
FALSE

What classification did N=c1c2c(-c3ccccc3)c(-c3ccccc3)n(Cc3ccccc3)c2ncn1C1CCC(O)CC1 (configuration not stated) end up with in this test?
TRUE

With those in mind, consider the next compound.
What classification did Clc1ccccc1C(c1ccccc1)(c1ccccc1)n1cccn1 end up with in this test?
TRUE

====

# TEST_METHOD_NOTES: Primary qHTS for inhibitors of nuclear receptor binding SET domain protein 2 (NSD2) in an isogenic RCH-ACV NSD2 p.E1099K mutant (9B) (AID 1645876); also: nearly all actives have a fitted effect of over 70% in size; also: potency is read from the fitted curve at half-maximal effect
# CONDITION_NOTES: RCH-ACV (leukaemia line) NSD2 E1099K (9B) viability, CellTiter-Glo, 72 h; series mostly up to 44.9 µM
Results filed as inconclusive are left out. The source made the active and inactive calls. Calls come from the whole dose curve; as a rule, active = well fitted inhibition curve with a large enough effect; inconclusive = small, poorly fitted or top-dose-only effect; inactive = flat fitted curve, though single readings scatter.
ASSAY_ENDPOINT: Potency

Take a look at these entries with their results.
// CCC1(CCC(C)C)C(=O)NC(=O)NC1=O : Potency value = inactive

// CC(=O)NCCc1c[nH]c2ccccc12 : Potency value = inactive

// O=C(Nc1ccccc1-c1ccc(Cl)cc1)c1cccnc1Cl : Potency value = inactive

// CC(N[C@H]1C[C@H]1c1ccccc1)c1ccc2c(c1)OCCO2 (stereo not given in full) : Potency value = inactive

***
// COC(=O)c1cncn1C(C)c1ccccc1 (stereo not given) : Potency value = inactive

// CCCN1CCO[C@@H]2c3cc(O)ccc3OC[C@H]21 : Potency value = inactive

// NC1=NC(=O)N2CC12 (stereo not given) : Potency value = inactive

// CCCCCCCCCCCCCCCC[N+](C)(C)C : Potency value = 0.422 µM (active)

// CCOP(=O)(OCC)C(C)NC(=O)N(CCCl)N=O (stereo not given) : Potency value = inactive

// CO/C=C(/C(=O)OC)c1ccccc1Oc1cc(Oc2ccccc2C#N)ncn1 : Potency value = 24.3 µM (active)

// O=C(O)CNC(=O)c1c(O)c2ccccc2n(Cc2ccccc2)c1=O : Potency value = inactive

====

# TEST_METHOD_NOTES: qHTS of pediatric cancer cell lines to identify multiple opportunities for drug repurposing: Primary screen for LAN-5 cells (AID 1347100)
# CONDITION_NOTES: LAN-5 neuroblastoma viability, CellTiter-Glo luminescence, 48 h; series mostly up to 46 µM
Inconclusive results are not listed. Activity calls are given as the source filed them. Calls follow the shape of the dose curve; as a rule, active = well fitted cell-killing curve with a large enough effect; inconclusive = small, poorly fitted or top-dose-only effect; inactive = no such curve, though single readings can be large or run the other way.
Respond with a class label; see True (active), False (inactive)

What classification did O=c1[nH]c2ccccc2n1C1CCN(Cc2ccc(-c3[nH]c4cc5ncnc5cc4nc3-c3ccccc3)cc2)CC1 end up with in this test?
True

What classification did COc1cc([C@@H]2c3cc4c(cc3[C@@H](O)C3COC(=O)C32)OCO4)cc(OC)c1O (stereo not given in full) end up with in this test?
True

What classification did CC(Cc1ccc(O)cc1)NCC(O)c1cc(O)cc(O)c1 (stereo not given) end up with in this test?
False

What classification did O=C(O)CNC(=O)c1c(O)c2ccccc2n(Cc2ccccc2)c1=O end up with in this test?
False

With those in mind, consider the next molecule.
What classification did CCCCC(CC)COC(=O)c1ccccc1C(=O)OCC(CC)CCCC (stereo not given) end up with in this test?
False

====

# TEST_METHOD_NOTES: qHTS of pediatric cancer cell lines to identify multiple opportunities for drug repurposing: Primary screen for OHS-50 cells (AID 1347103); also: nearly all actives have a fitted effect of over 40% in size
# CONDITION_NOTES: OHS-50 osteosarcoma viability, CellTiter-Glo luminescence, 48 h; series mostly up to 57.3 µM
Results filed as inconclusive are left out. The source made the active and inactive calls. The call rests on the fitted dose curve; in most records, active means well fitted cell-killing curve with a large enough effect; inconclusive means small, poorly fitted or top-dose-only effect; inactive means no such curve, though single readings can be large or run the other way.
Respond with a class label; see TRUE = active, FALSE = inactive

Check out these entries, answers already filled in.
What classification did OCCCBr end up with in this test?
FALSE

What classification did CC(=CCCC1=CCC(C2=CC(=O)OC2O)OC1O)CCC1=C(C)CCCC1(C)C (stereo not given) end up with in this test?
FALSE

What classification did CC(=Cc1csc(C)n1)[C@@H]1C[C@H]2O[C@]2(C)CCC[C@H](C)[C@@H](O)[C@@H](C)C(=O)C(C)(C)[C@@H](O)CC(=O)O1 end up with in this test?
TRUE

What classification did O=[N+]([O-])/N=C1\NCCN1Cc1ccc(Cl)nc1 end up with in this test?
FALSE

***
What classification did O=[N+]([O-])c1ncc[nH]1 end up with in this test?
FALSE

What classification did C#C[C@]1(O)C=C[C@@H]2[C@@H]3CCC4=CC(=O)CC[C@@H]4[C@H]3CC[C@@]21CC end up with in this test?
FALSE

What classification did O=S(=O)(F)Cc1ccccc1 end up with in this test?
FALSE

What classification did CCCCCC[C@H]1C(=O)O[C@H](C)[C@H](NC(=O)c2cccc(NC=O)c2O)C(=O)O[C@@H](C)[C@@H]1OC(=O)CC(C)C end up with in this test?
TRUE

What classification did CCCN1CCO[C@@H]2c3cc(O)ccc3OC[C@@H]21 end up with in this test?
FALSE

====

# TEST_METHOD_NOTES: qHTS for Inhibitors of the Functional Ribonucleoprotein Complex (vRNP) of Lassa (LASV) Arenavirus: Viability assay - alamar blue signal for LASV Primary Screen (AID 1347083); also: nearly all actives have a fitted effect of over 80% in size
# CONDITION_NOTES: cell viability, alamar blue fluorescence (LASV minigenome counter-screen); series mostly up to 57.5 µM
Results filed as inconclusive are left out. Calls of active or inactive are those of the source. The call rests on the fitted dose curve; tested in HEK293 reporter line.
Respond with a class label; see yes (1) for active, no (0) for inactive

What classification did CCCN(CCC)c1c([N+](=O)[O-])cc(S(N)(=O)=O)cc1[N+](=O)[O-] end up with in this test?
no (0)

What classification did O=S(=O)(O)C(F)(F)C(F)(F)C(F)(F)C(F)(F)C(F)(F)C(F)(F)C(F)(F)C(F)(F)F end up with in this test?
no (0)

What classification did CCCCCCCCOc1ccc(C(=O)c2ccccc2)c(O)c1 end up with in this test?
no (0)

What classification did CC(=O)N[C@@H](Cc1ccc(O)cc1)C(=O)O end up with in this test?
no (0)

What classification did OC[C@H](Cc1ccccc1)Nc1nc(Oc2ccc3c(c2)CCC3)nc2c1ncn2Cc1ccc(-c2ccccc2)cc1 end up with in this test?
no (0)

***
What classification did C[C@H](NC(=O)Cc1cc(F)cc(F)c1)C(=O)N[C@@H]1C(=O)N(C)c2ccccc2-c2ccccc21 end up with in this test?
no (0)

What classification did CCCCc1ccc(NS(=O)(=O)c2ccc(C)c(C(=O)N3CCN(c4cccc(C)c4C)CC3)c2)cc1 end up with in this test?
no (0)

What classification did CCOc1cc(N2CCC(O)CC2)ccc1Nc1ncc2c(n1)N(C)c1ccccc1C(=O)N2C end up with in this test?
yes (1)

What classification did COc1ccc(CCN(C)CCCOc2ccc(S(=O)(=O)c3[nH]c4ccccc4c3C(C)C)cc2)cc1OC end up with in this test?
no (0)

====

# SYSTEM: Cytochrome P450 2D6 (Homo sapiens) (UniProt P10635)
# Sequence (P10635 whole entry, looked up): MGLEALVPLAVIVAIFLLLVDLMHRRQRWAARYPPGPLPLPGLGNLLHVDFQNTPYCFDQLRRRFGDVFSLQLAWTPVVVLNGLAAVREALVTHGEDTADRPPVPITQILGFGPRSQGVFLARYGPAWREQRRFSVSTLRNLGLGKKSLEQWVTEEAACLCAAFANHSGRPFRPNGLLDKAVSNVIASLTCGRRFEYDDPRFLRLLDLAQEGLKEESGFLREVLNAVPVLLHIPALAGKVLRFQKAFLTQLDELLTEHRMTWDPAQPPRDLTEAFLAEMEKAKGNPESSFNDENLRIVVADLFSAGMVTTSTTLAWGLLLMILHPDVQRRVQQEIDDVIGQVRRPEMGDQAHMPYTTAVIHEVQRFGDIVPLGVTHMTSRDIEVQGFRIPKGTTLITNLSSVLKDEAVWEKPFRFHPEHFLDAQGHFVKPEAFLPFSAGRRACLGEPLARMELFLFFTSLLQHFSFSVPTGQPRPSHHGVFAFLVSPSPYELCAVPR
# TEST_METHOD_NOTES: Cytochrome P450 family 2 subfamily D member 6 (CYP2D6) small molecule antagonists: luciferase biochemical (cell-free) qHTS assay (AID 1645840); also: nearly all actives have a fitted effect of over 55% in size
# CONDITION_NOTES: P450-Glo CYP2D6 enzyme, luciferin luminescence, 1 h; series mostly up to 57.4 µM
Inconclusive results are not listed. Calls of active or inactive are those of the source. The call rests on the fitted dose curve; in most records, active means well fitted inhibition curve with a large enough effect in the repeat runs; inconclusive means weak or mixed curves; inactive means flat fitted curve, though single readings scatter.
Respond with a class label; see active, inactive

What classification did O=C(Nc1ccccc1-c1ccc(Cl)cc1)c1cccnc1Cl end up with in this test?
active

What classification did Cc1cc(O)ccc1Cl end up with in this test?
inactive

***
What classification did Cc1ccc(Cl)c(O)c1 end up with in this test?
inactive

What classification did O=C(O)CNC(=O)c1c(O)c2ccccc2n(Cc2ccccc2)c1=O end up with in this test?
inactive

What classification did CC(Cc1ccc(O)cc1)NCC(O)c1cc(O)cc(O)c1 (stereo unspecified) end up with in this test?
active
